src = the supplement of paper PMC11208160

# Assay method text: recombinant UMI read abundance after kanamycin selection (control-corrected) (log10(CPM+1)); higher = more efficient recombination; extreme values may be limits of the assay; sequences stand for … in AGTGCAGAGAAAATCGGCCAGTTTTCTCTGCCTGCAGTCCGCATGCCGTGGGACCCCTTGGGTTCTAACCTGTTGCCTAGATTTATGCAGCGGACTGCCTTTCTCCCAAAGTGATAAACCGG…AGGTTGGTTTCACT; site = the 11-nt donor
Grouping rule (recombinant UMI read abundance (log10)): lower = under 0.009, middle = from 0.009 up to 0.3, upper = 0.3 and over

Solved cases (6 shown):
GAGATTCCATGGACCGGTTTTCCCGGTAATCCGTATTTGGG (site GAGATTCCTCC) ... middle
CCATACTCATGGACCGGTTTTCCCGGTAATCCGTATTTGCA (site TCATACTCTTG) ... lower
CTACTATCATGGACCGGTTTTCCCGGTAATCCGTATTTGAA (site CTACTATCTTT) ... upper
GGGACATCATGGACCGGTTTTCCCGGTAATCCGTATTTGCT (site CGGACATCTAG) ... lower
GCGGCTTCATGGACCGGTTTTCCCGGTAATCCGTATTTGTC (site GCGGCTTCTGA) ... upper
CCAGGCGCATGGACCGGTTTTCCCGGTAATCCGTATTTGAT (site CCAGGGGCTAT) ... lower

Prompt: Field: class (recombinant UMI read abundance (log10)) — entry: GGTACGACATGGACCGGTTTTCCCGGTAATCCGTATTTGTT (site GGTACGCCTAA)
Completion: middle

Prompt: Field: class (recombinant UMI read abundance (log10)) — entry: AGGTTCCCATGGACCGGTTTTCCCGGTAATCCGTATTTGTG (site AGGTTCCCTCG)
Completion: upper

Prompt: Field: class (recombinant UMI read abundance (log10)) — entry: CAAGTCACATGGACCGGTTTTCCCGGTAATCCGTATTTGCG (site CAAGTCACTCC)
Completion: upper

* * *

# Assay method text: recombinant barcode read abundance after kanamycin selection (control-corrected) (log10(CPM+1)); higher = more efficient recombination; sequences stand for … in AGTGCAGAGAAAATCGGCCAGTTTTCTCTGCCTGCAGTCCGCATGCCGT…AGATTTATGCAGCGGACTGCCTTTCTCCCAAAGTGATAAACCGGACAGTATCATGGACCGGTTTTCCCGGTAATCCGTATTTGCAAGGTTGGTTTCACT; site = the 11-nt target
Quantity kind: recombinant barcode read abundance (log10)
Please state the value as a number alone, without comment.

Here is how some sequences turned out for recombinant barcode read abundance (log10).
GAAATACCTTGGGTTCTAACCTGTTGCGG (site AGCTATGCTAG) ... 0.131
ACCGTCCCTTGGGTTCTAACCTGTTGCCG (site ACCGACCCTCG) ... 0.0364
GACCAGCCTTGGGTTCTAACCTGTTGCAT (site GACCAGCCTAA) ... 0.106

get_value(item= TGCAAGTCTTGGGTTCTAACCTGTTGCCT (site TGCGAGTCTAG) , readout=recombinant barcode read abundance (log10)) returns 0.137

* * *

# Assay method text: recombinant barcode read abundance after kanamycin selection (control-corrected) (log10(CPM+1)); higher = more efficient recombination; sequences stand for … in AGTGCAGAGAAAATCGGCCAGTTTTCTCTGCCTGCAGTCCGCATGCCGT…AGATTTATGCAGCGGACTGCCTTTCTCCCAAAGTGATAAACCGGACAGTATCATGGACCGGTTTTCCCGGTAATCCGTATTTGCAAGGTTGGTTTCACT; site = the 11-nt target
Grouping rule (recombinant barcode read abundance (log10)): zone 1 (below 0.08), zone 2 (0.08 to below 0.3), zone 3 (0.3 or more)

Prompt: Field: class (recombinant barcode read abundance (log10)) — entry: CTACTATCTTGGGTTCTAACCTGTTGCGC (site TATAACACTCG)
Completion: zone 2

Prompt: Field: class (recombinant barcode read abundance (log10)) — entry: GTCAAAGCTTGGGTTCTAACCTGTTGCCA (site GTCAAAGCTTG)
Completion: zone 1
